# SYSTEM TESTED: ALK_(TG–EGFL) (human ALK residues 648–1038) (human, UniProt Q9UM73 648-1038)
# Sequence (Q9UM73 648-1038): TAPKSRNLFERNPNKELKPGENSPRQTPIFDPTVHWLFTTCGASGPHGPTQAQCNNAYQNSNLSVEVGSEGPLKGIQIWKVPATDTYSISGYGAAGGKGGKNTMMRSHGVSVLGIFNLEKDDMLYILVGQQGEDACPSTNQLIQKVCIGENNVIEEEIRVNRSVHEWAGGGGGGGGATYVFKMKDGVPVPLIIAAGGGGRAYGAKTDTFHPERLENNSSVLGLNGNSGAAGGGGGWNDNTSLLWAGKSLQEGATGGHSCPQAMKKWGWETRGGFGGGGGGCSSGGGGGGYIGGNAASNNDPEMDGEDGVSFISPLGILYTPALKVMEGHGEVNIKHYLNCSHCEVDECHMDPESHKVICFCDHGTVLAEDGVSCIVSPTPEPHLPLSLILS
# METHOD NOTES: ITC
Items are presented alongside their recorded pKd.
On this scale, pKd is minus log10 of a concentration expressed in M (mol/L).

# BINDER, MEASURED NUMBER
measured = [
    ("ALKAL1 (residues 57–129, conserved C-terminal domain) (ligand, human, UniProt Q6UXT8 57-129, looked up) PSGSRSAEIFPRDSNLKDKFIKHFTGPVTFSPECSKHFHRLYYNTRECSTPAYYKRCARLLTRLAVSPLCSQT", 6.22),
]

# ---- query binder ----
I have this binder here, ALKAL2 (residues 78–152, conserved C-terminal domain) (ligand, human, UniProt Q6UX46 78-152, looked up) PSPEQRVEIVPRDLRMKDKFLKHLTGPLYFSPKCSKHFHRLYHNTRDCTIPAYYKRCARLLTRLAVSPVCMEDKQ , and I need its recorded pKd. 7.40
